As shown below, each of these binders has a reported peptide exchange yield value.
- testTarget: T1, HLA-A*02:01 (human)
- T1 construct: Peptide-receptive MHC monomer made by UV cleavage of a UV-sensitive peptide
- testDescription: UV-ligand exchange, anti-b2m ELISA; exchange yield grade (+ >10%, ++ >20%, +++ >50, ++++ >75%)
- Description: Candidate peptides for T cell based therapies according to the present invention were further tested for their MHC binding capacity (affinity). The individual peptide-MHC complexes were produced by UV-ligand exchange, where a UV-sensitive peptide is cleaved upon UV-irradiation, and exchanged with the peptide of interest as analyzed. Only peptide candidates that can effectively bind and stabilize the peptide-receptive MHC molecules prevent dissociation of the MHC complexes. […]
readoutKind: peptide exchange yield

binder	readoutKind	readoutValue
KMMALVAEL	peptide exchange yield	> 75%
YVSSGEMMV	peptide exchange yield	50 to 75%
GLPDFVKEL	peptide exchange yield	> 75%
RLFGLFLNNV	peptide exchange yield	> 75%
